Where these numbers come from: the nanobody polyreactivity screen of Harvey et al. (2022)

assay: yeast display, Sf9 membrane polyspecificity reagent, FACS + sequencing; frameworks hold sequencing errors
assayReadout: polyreactivity (PSR sort gate)

biopolymersequence=QVQLVESGGGIVQAGGSLRLSCAASGSIYRYNTMGWYRQEPRKERELVATITRRGGSTYYADSVQGRFTISRDNAKNTVYLQMNSLKPEDTAVYYCNADYFGGPYNYWGQGTQVTVSS assayreadout="polyreactivity (PSR sort gate)" reading="low polyreactivity"
biopolymersequence=QVQLVESGGGLVQAGGSLRLSCAASGRIFVYYAMGWYSQAPGKERELVASISYSGASTYYADSVKGRFTISRDNAKNTVYLQMNSLKPEDTAVYYCNTDGDDFFHVIYDYWGQGTQVTVSS assayreadout="polyreactivity (PSR sort gate)" reading="low polyreactivity"
biopolymersequence=QVQLVESGGGLVQAGGSLRLSCAASGITIVNYVMGWYRQAPGKERELVAAISIGGGTYYADSVKGRFTISRDNAKNTVYLQRNSLKPEDTAVYYCNATFGGLSFYIGVYVTGYDYWGQGTQVTVSS assayreadout="polyreactivity (PSR sort gate)" reading="low polyreactivity"
biopolymersequence=QDQLVESGGGLVQEGGSLRLICGASGFIFPTNAMGWYRPAPGKERELVAAISRSGGTTNYADSVKGRFTISRDNAKNTVYLQRNSLKPEDTAVYYCNRGWATWHGPDDYWGQGTQVTVSS assayreadout="polyreactivity (PSR sort gate)" reading="high polyreactivity"
biopolymersequence=QVQLVESGGGLVQAGGSLRLTCAASALTFVWYAMGWYRQATGKERELVAAIRGGGSTYYADSVKGRFTISRDNAKNTVYLQMNRLIPEDTAVYYCAAQRSPYYTFYYWGQGTQVTVSS assayreadout="polyreactivity (PSR sort gate)" reading="high polyreactivity"

---

test: yeast display, Sf9 membrane polyspecificity reagent, FACS + sequencing; frameworks hold sequencing errors
assayReadout: polyreactivity (PSR sort gate)

biopolymersequence=QVQLVESGGGLVQAGGSLRLSCAASGITFWDYAMGRYRQAPGKERELVAGISTRGGSTYYADSVKGRFTISRDNAKNTVYLQMNSLKPEDTAVYYCAADAQTSFGLGWGSDYDYWGQGTQVTVSS assayreadout="polyreactivity (PSR sort gate)" reading="low polyreactivity"
biopolymersequence=QVQLEESGGGLVQAGGSLRLSCAASGRIFYDYAMGWYRKAPGKERELVATISWSAGIKYYADSVKGRFTISRDNAKNTVYLQMNSLKPEDTAVYYCAKVGRYTYSGQYDYWGQGTQVTVSS assayreadout="polyreactivity (PSR sort gate)" reading="high polyreactivity"
biopolymersequence=QVQLVESGGGLVQAGGSLRLSCAASGSIFQSYAMGWYRQAPGKERELVATITISDGSTYYADSVKGRFTISRDNAKNTVYLQMNSLKPEDTAVYYCAATDYISYGAPLRRGLNYDYWGQGTQVTVSS assayreadout="polyreactivity (PSR sort gate)" reading="low polyreactivity"
biopolymersequence=QVQLVESGGGLDQAGGSLRLSCAASGSIFTYYAIGWYRQAPGKERELVADISQRGGSTYYADSVKGRFTISRDNAKNTVYLQMISLKPEDTAVYYCATRARYTWRAFEYWGQGTQVNVSS assayreadout="polyreactivity (PSR sort gate)" reading="low polyreactivity"
biopolymersequence=QVQLVESVGGLDQAGVSLRLSSAASGSTFGSYVMGWYRQSPGKERELVASISDGGITNYADSVKGRFTISRDNAKNTVYLQMNSLNPEDTAVYYCAAATRPFSDYTTEGYYYWGQGTQVTVSS assayreadout="polyreactivity (PSR sort gate)" reading="low polyreactivity"
biopolymersequence=QVQLVESGGGLVQAGGSLRLSCAASGSTFSRDAMRWYRQPPGKERELVAAISSVGDTYYADSVKGRFTISRDNAKNTVYLQMNSLKPEDTAVYYCGATFVVKGTRFGYWGQGTQVTVSS assayreadout="polyreactivity (PSR sort gate)" reading="high polyreactivity"
biopolymersequence=QVQLVESGGGLVQAGGSLRLSCAASGFIFGYNVMGWYIQAPGKERELVASISTGGRTYYADSVKGRFTISRDNAKNTVYLQMYSLKPEDTAVYYCAARYRSYSYLYYSWGQGTQVTVSS assayreadout="polyreactivity (PSR sort gate)" reading="high polyreactivity"
biopolymersequence=QVQLVESGGGLVQAGGSLRISCAASGSTFDNYAMGSYRHAPGKERELVAVITQSGGITFYADSVKGRFTISRDNSKNTVYLQMNSLKPEDSAVYYCNVELDRSWYYYWGQGTQVTVSS assayreadout="polyreactivity (PSR sort gate)" reading="low polyreactivity"
biopolymersequence=QFQLVESGRGLVQAGGSIRLSCAASGSIFRWYAMGWSRQAPGKERELVAAISYGGGSTYYADSVKGRFTISRDNAKNTVYLQMNRLKPEDTAVYYCNRGYPSTLYDYWGQGTQVTVSS assayreadout="polyreactivity (PSR sort gate)" reading="high polyreactivity"
biopolymersequence=QVQLVESGGGLVQAGGSLRLSCAASGSTFVSYAMGWYRQAPGKERELVAAISISDSSTYYADSVKGRFTISRDNAKKTVYLQMNSLKPEDTAVYYCNRYDYWGQGTQVTVSS assayreadout="polyreactivity (PSR sort gate)" reading="low polyreactivity"
biopolymersequence=QVQLVESGGGLVQAGGSLRLSCPASGSIFYENAMGWYRQAPGKARELVAAISRSGGSTYYADSVKGRFTISRDNAKNTVYLQMNSLKPEDTAVYYCNTEGGVIRRYWYDYWGQGTQVTVSS assayreadout="polyreactivity (PSR sort gate)" reading="low polyreactivity"
biopolymersequence=QVQLQESGGGLVQAGDSLRLSCAASGTISGRDSMGWYRQAPGKEREFVASIDFGTNTYYADSVKGRFTISRDNAKNTVYLQMNRLTAVYYCAAPDSQYSYWGQGTQVTESS assayreadout="polyreactivity (PSR sort gate)" reading="high polyreactivity"
biopolymersequence=QVQLVESGGGLVQAGGSLRLSCAASGYIFRSYAMGWYRQAPGKERELVATISWIGGGTSYADSVKGRFTISRDNAKNTVYLHMNSLIPVDTAVYYCAAGPWAYGRRHAYYSRSFDYWGQGTQVTVSS assayreadout="polyreactivity (PSR sort gate)" reading="high polyreactivity"
biopolymersequence=QLQLVESVGVLVQAGGSLRLSCAASGFIFDGYAMGWYRQAPGKERELVAAIDSGGDRTYYADSVKGRFTISRDNAKNTVYLQMNSLKPEDTAVYYCARTFRTYAPRPYQGDYWGQGTQVTVSS assayreadout="polyreactivity (PSR sort gate)" reading="low polyreactivity"
biopolymersequence=QVQLVESGGGLVQAGGSLRLSCAASGSIFSVNAMGWYRQAPGKVRELVAAISWRGGSTYYADSVKGRFTISRYNAKTTVYLQMNSLKPEDTAGYYCNAVISVKRSTRYGYWGQGTQVTVSS assayreadout="polyreactivity (PSR sort gate)" reading="low polyreactivity"
biopolymersequence=QVQLVESGGGLVQAGGSLRLSCAASGSTLGSNAMGWYRQAPGKERELVAAITWSGGTTYYADSVKGRFTISRDNAKNTVYLQMISLKPEDTAVYYCATGQSVIYRYEYWGQGTKVTVSS assayreadout="polyreactivity (PSR sort gate)" reading="low polyreactivity"
biopolymersequence=QVQLVESGGGLVQAGGSLRLSCAASGRIFYAYAMGWYRQAPGKERELVAGITYSGSSTYYADSVKGRFTISRDNAKNTVYLQMNSLKPEDTAVYYCAADLTRVLRYNYWGQGTQVSVSS assayreadout="polyreactivity (PSR sort gate)" reading="low polyreactivity"
biopolymersequence=QVQLVESGGGLVQAGGSLRLSCAASGFTFNTNAMGWYRQAPGKERELVAAITSSGGSTYYADSVKGRFTISRDNAKNTVYLQMNSLKPEDTAVYYCNADVTLRLWAYYYYRYNYWGQGTQVTVSS assayreadout="polyreactivity (PSR sort gate)" reading="low polyreactivity"
biopolymersequence=QVQLVESGGGLVQAGGSLGLSCAASGRTFQQNAMGWYRQAPGKERELVAALNSRGGRTYYADYVKGRFTISRDNAKNTVYLQMNSLKPEDTAVYYCAARYYWGQGTEVTVSS assayreadout="polyreactivity (PSR sort gate)" reading="high polyreactivity"
biopolymersequence=QVQLVESGGGLVQAGGSLRLSCSASGYIFGRNSMGWYRTAHGKERELVAVISSRGSRTYYADSVKGRFTISRDNAKNTVYLQMNSLKPEDTAVYYCNAVLWWDWVYDFYYWGQGNQVTVSS assayreadout="polyreactivity (PSR sort gate)" reading="high polyreactivity"
biopolymersequence=QVQLVESGGGLVQAGGSLRLSCAASGSTFVSYAMGWYRQAPGKEREFVAAITWSGGSTYYADSVKGRFTISRDNAKNTVYLQMNSLKPEDTAVYDCAAATYRQQWHYYWGQGTQVTVSS assayreadout="polyreactivity (PSR sort gate)" reading="high polyreactivity"

---

assay: yeast display, Sf9 membrane polyspecificity reagent, FACS + sequencing; frameworks hold sequencing errors
assayReadout: polyreactivity (PSR sort gate)

biopolymersequence=QVQLVESGGGLVQAGGSLRLSCAASGLIFPVYDMAWYRQAPGKERELVAAITRSGDSTYYADSVKGRFTISRDNAKNTVYLQMNSLKPEDSGVYYCAAQPGTASYAGDGDSWGKGTQVTVSS reading="low polyreactivity"
biopolymersequence=QVQLVESGGGLVQAGGSLLLSCAASGRTFAPYAMGWYRQAPGKERELVAAISSGGGNTYYADSVKGRFTISRDNAKITVYLHMNSLKPEDTAVYYCNAAQRRGGLGYSGQGTQVTVSS reading="high polyreactivity"
biopolymersequence=QVQLVESGGALVQAGGSLRISCAASGLTFKLYTMGWYRQAPGKERELLAAISRSGTRTYYADSVKGRFTISRDNAKNTVYLLMNSLKPEDTADYYCAARTDGYRNNYWGQGTQVTVSS reading="high polyreactivity"
biopolymersequence=QVQLVESGGGLVQAGGSLRLSCAASGRIFYLYVMGWYRQAPGKERELVAAISIGSTTNYADSVKGRFTISRDNAKNTVYLQMNSLKPEDTAVYYCNARDGPPFYDYWGQRTQVTVSS reading="low polyreactivity"
biopolymersequence=QVQLVESGGGLVQAGGSLRLSCAASGSTFTLNAMGWYRQAPGKERELVADISWSSGRTYYADSVKGRFTISRDTEKNTVYLQMNSLKPEDTAVYYCATDDLSIVKFYAYYPEFDYWGQGTQVTVSS reading="low polyreactivity"
biopolymersequence=QVQLVEAGGGLVQAGGSLRLSCAASGSIFAQNVRGWSRQAPGKERELVAAISYSGGTTYYADSVKGRFTISRDNAMNTVYLQMNSLKPEDTAVYDCAAEFGVYEYDYWGQGTQVTVSS reading="low polyreactivity"
biopolymersequence=QVQLVESGGGLVQAGGSLRLSCAASGSTFRRYAMGWYRQAPGKERELVASISRSGGSTYYADSVKGRFTISRDNAKNTVYLQMNSLKPEDTAVYYCAKKPYKSAYDYSSAYDYWGQGTQVTVSS reading="high polyreactivity"
biopolymersequence=QVQLVESGGGLVQSRVSLRLSCAASGRTIYVNAMGWYRQAPGKEREFVATISGGGSTKYADSVKGRFTISRDNAKNTVYLQMNSLKPEDTAVYYCARRRERYTADSRGYGYWGQGTQVTVSS reading="low polyreactivity"
biopolymersequence=QVQLVESGGGLVQAGGSLRLSCAASGSIFGINAMGWYRQAPWKERELVAAITSDGSTYYADSVKGRFTISRDNAKNTVYLQMNSLNPEDTAVYYCAAYSWYYTSRYDYWGQGTQVTVSS reading="low polyreactivity"
biopolymersequence=QVQLVESGGGLVQAGGSLRLSCAASGFTFAVNVMGWYIHAPGKEREFDAAISWTGGSTDYADSVKGRFTISLDNAKNTVYLQMNSLKPEDTAVYYCAADYNLRLQPFRKLVGPAGGYWGQGTQLTVSS reading="low polyreactivity"
biopolymersequence=QFQLVESGGGLVQAGGSLRLSCADSVRTLYRNVMVWYRHAPVKERELVAAISLSGGSTYYEDSVKGRFTISRDNANYTVYLQMNSMKPEYTAVYYCAVKRPYCPGEYGYWGQGTQVTVSS reading="high polyreactivity"
biopolymersequence=QVQLVESGGGLVQAGGSLRLSCAASGSTFPKYAMGWYRQAPGKERELVASISVTTGSTYYADSVKGRFTISRDNAKNTVYLQMNSLKPEDTAVYYCAARRGWGDDYWGQGTQVTVSS reading="high polyreactivity"
biopolymersequence=QDQLVESGGGLVQAGGSLRLSCSASGSIVGLYAMGWYRQAPGKERELVAAITASDGYTYYADSVKGRFTNSRDNAKNTVYLQMNSLKPEDTAVYYCNADAYSGYFLFDYWGQGTQVNVSS reading="low polyreactivity"
biopolymersequence=QVQLVESGGGLVQAGGSLRLSCAASGYNFVRNAMGWYRQAPGKERELVAAISGSGGSTYYADSVKGRFTISRDNAKNTVYLQMNSLKPEDTAVYYCAADYATVTWRGIAYDYWGQGTQVTVSS reading="low polyreactivity"
biopolymersequence=QVQLVESGGGLVPARGSLRLSWAASGSTFSLYAMGWYRQAPGKERELVAAISWSGGNTYYADSVKGRFTISRDNAKNTVYLQMNSLKPEDTAVYYCAAEGKTFHRYYLYSYDYWGQGTQVTVSS reading="high polyreactivity"
biopolymersequence=QVQLVESGGGLVQAGGILRLSCAASGRIFRFYTMGWYRQAPGKERELVAAITSSGRTYYADSVKGRVTISRDNAKNTVYLQMNSLKPEDTAVYYCNKYFRPRTILASPGEYWGQGTQVTVSS reading="high polyreactivity"
biopolymersequence=QVQLVESGGGLVQAGGSLRLSCAASGFIFANYAMGWYRQAPGKERELVAVISQRGGRTYYADSVKGRFTISRDNAKNTVYLQMNSLKPEDTAVYYCNAVTGEWGQGTQVTVSS reading="low polyreactivity"
biopolymersequence=QVQLVESGGGLVQAGGSLRLSCAASGSIIGGYVMGWYRQAPGKERELVAAITSRVGSTYYADSVKGRFTISRDNAKNTVYLQMNSLKPEDTAVYYCAVVFAKRAWSRYDYWGQGTQVTVSS reading="high polyreactivity"
biopolymersequence=QVQLVESGGGLVQAGGSLRLISAASGSIFPAYDMGLYRQAPGKEREFLPAIERGGSTYYADSVKGRYTISRDNAKNTVYLPMNSLKPVDTAVFYCATDCPEYPNYISSAGFDYWGQGTQVNVSS reading="low polyreactivity"
biopolymersequence=QVQLVESGGGLVQAGGSLRLSCAASGSTLNSYVMGWYRQAPGKERELVATIRSGSSTNYADSVKGRFTISRDNAKNTVYLQMNSLKPEDTAVYDCAADAYSLCYDSWGQGTQVTVSS reading="low polyreactivity"
biopolymersequence=QVQLVESGGGLVQAGGSLRLSCAASGIIFDGYAMGWYRQAPGKERELVAAISGHGGSTYYADSVKGRFTISRDNAKNTVYLQMNSLKPEDTAVYYCAAEYVYWRIGQYDYWGQGTQVTVSS reading="high polyreactivity"
